Reference source: patent US20230405094A1

- Procedure summary: Plasma kinetics after single subcutaneous dose of rilpivirine nanosuspension with or without rHuPH20 (Example 1)
- Assay type: in vivo, minipigs
- Particulars: plasma; minipig, single SC dose 900 mg/3 mL, N=3
Measure name: AUC(0-inf) (ng·h/mL)
Number in ng·h/mL, nothing else.

## Task Fill in the blank: the reported AUC(0-inf) of Cc1cc(/C=C/C#N)cc(C)c1Nc1ccnc(Nc2ccc(C#N)cc2)n1 is ____.
## Result 27000
